The measurements presented in this section are drawn from patent US6737383B1.

test system: morningglory; assay: Test B pre/postemergence morningglory; format: in vivo, Ipomoea hederacea; conditions: Postemergence, Rate 125 g/ha; scale of 0 to 10 where 0 is no effect and 10 is complete control
measure name: Morningglory plant response rating
Output spec: single numeric token, no unit.

As a guide, the following entries are already answered.
Cc1nn(C)c(Cl)c1-n1c(=O)on(C(=O)N(c2ccccc2)C(C)C)c1=O [Compound 121] ... 6
CC(C)N(C(=O)n1oc(=O)n(C[C@H](C)Cl)c1=O)c1ccc(Cl)cc1 [Compound 748] ... 6
CCCn1c(=O)on(C(=O)N(c2ccc(F)cc2)C(C)C)c1=O [Compound 91] ... 7
CC(C)N(C(=O)n1oc(=O)n(CC(F)F)c1=O)c1ccc(F)cc1 [Compound 710] ... 4
CC(C)N(C(=O)n1oc(=O)n(C[C@H](C)Cl)c1=O)c1ccccc1 [Compound 747] ... 9

In the following, a different molecule is considered.
Prompt: Identify the reported Morningglory plant response rating for the following entry. C#CCn1c(=O)on(C(=O)N(c2ccccc2)C(C)C)c1=O [Compound 754]
Response: 10
